System: Pseudomonas fluorescens
Test: Growth inhibition of Pseudomonas fluorescens NCIM 2059 at 1 ug/ml measured after 8 hrs relative to control
Type: functional
Conditions: NCIM 2059, 8 h, read-out: GI
Observation type: inhibition of growth at 1 µg/mL (%)

> print(dat)
                                item.smiles      experimental.target  value.unit  readout.number
1  Cc1nc(-c2ccccc2)oc1-c1csc(-c2cccc(Cl)c2)n1  Pseudomonas fluorescens           %            23.5
2  Cc1nc(-c2ccccc2)oc1-c1csc(-c2ccc(Cl)cc2)n1  Pseudomonas fluorescens           %            10.5
3  Cc1ccc(-c2nc(-c3oc(-c4ccccc4)nc3C)cs2)cc1  Pseudomonas fluorescens           %            2.57
4  CC1(C)S[C@@H]2[C@H](NC(=O)[C@H](N)c3ccccc3)C(=O)N2[C@H]1C(=O)O  Pseudomonas fluorescens           %            96.4
5  Cc1nc(-c2ccccc2)oc1-c1csc(-c2ccc(F)cc2)n1  Pseudomonas fluorescens           %            31.8
6  Cc1nc(-c2ccc(F)cc2)oc1-c1csc(Cc2ccccc2)n1  Pseudomonas fluorescens           %              87

----------
The reader will find reported inhibition of growth at 30 µg/mL values listed item by item below.
System: Pseudomonas fluorescens
Test: Growth inhibition of Pseudomonas fluorescens NCIM 2059 at 30 ug/ml measured after 8 hrs relative to control
Assay type: functional
Details: NCIM 2059, 8 h, read-out: GI
Observation type: inhibition of growth at 30 µg/mL

> print(dat)
                                item.smiles  result
1  Cc1nc(-c2ccccc2)oc1-c1csc(-c2ccc(F)cc2)n1     61%
2  Cc1nc(-c2ccc(F)cc2)oc1-c1csc(-c2ccc(F)cc2)n1   63.4%
3  Cc1nc(-c2ccccc2)oc1-c1csc(-c2ccc(Cl)cc2)n1   44.9%
4  Cc1nc(-c2ccc(F)cc2)oc1-c1csc(Cc2ccc(F)cc2)n1   95.9%

----------
System: Escherichia coli
Assay: Growth inhibition of Escherichia coli NCIM 2576 at 10 ug/ml measured after 8 hrs relative to control
Format: functional
Settings: NCIM 2576, 8 h, read-out: GI
The reader will find reported inhibition of growth at 10 µg/mL values listed item by item below.
Observation type: inhibition of growth at 10 µg/mL (%)

> print(dat)
                                item.smiles                  observation.type  readout.number
1  Cc1nc(-c2ccc(F)cc2)oc1-c1csc(Cc2ccc(F)cc2)n1  inhibition of growth at 10 µg/mL            85.2
2  Cc1ccc(-c2nc(-c3oc(-c4ccccc4)nc3C)cs2)cc1  inhibition of growth at 10 µg/mL            11.1
3  Cc1nc(-c2ccc(F)cc2)oc1-c1csc(-c2ccc(F)cc2)n1  inhibition of growth at 10 µg/mL              59
4  CC1(C)S[C@@H]2[C@H](NC(=O)[C@H](N)c3ccccc3)C(=O)N2[C@H]1C(=O)O  inhibition of growth at 10 µg/mL            97.9
5  Cc1nc(-c2ccccc2)oc1-c1csc(-c2cccc(Cl)c2)n1  inhibition of growth at 10 µg/mL            51.8
6  Cc1nc(-c2ccc(F)cc2)oc1-c1csc(-c2cccc(Cl)c2)n1  inhibition of growth at 10 µg/mL            40.5
7  Cc1nc(-c2ccccc2)oc1-c1csc(Cc2cccc(Cl)c2)n1  inhibition of growth at 10 µg/mL            88.7
8  Cc1nc(-c2ccc(F)cc2)oc1-c1csc(-c2ccc(Br)cc2)n1  inhibition of growth at 10 µg/mL            60.7
9  Cc1nc(-c2ccc(F)cc2)oc1-c1csc(-c2ccc(Cl)cc2)n1  inhibition of growth at 10 µg/mL            10.4

----------
System: Mycobacterium tuberculosis
Assay: Growth inhibition of Mycobacterium bovis BCG ATCC 35743 at 1 ug/ml by nitrate reductase based two-fold dilution assay relative to control
Assay type: functional
Conditions: BCG str. ATCC 35743, read-out: GI
The reader will find reported inhibition of growth at 1 µg/mL values listed item by item below.
Observation type: inhibition of growth at 1 µg/mL

Compound	Observation type	Result
Cc1nc(-c2ccc(F)cc2)oc1-c1csc(-c2ccc(Cl)cc2)n1	inhibition of growth at 1 µg/mL	25%
Cc1nc(-c2ccc(F)cc2)oc1-c1csc(-c2cccc(Cl)c2)n1	inhibition of growth at 1 µg/mL	23%
Cc1nc(-c2ccc(F)cc2)oc1-c1csc(-c2ccc(F)c(Cl)c2)n1	inhibition of growth at 1 µg/mL	21%
Cc1nc(-c2ccccc2)oc1-c1csc(Cc2ccc(Cl)cc2)n1	inhibition of growth at 1 µg/mL	96%
Cc1nc(-c2ccccc2)oc1-c1csc(-c2ccc(Cl)cc2)n1	inhibition of growth at 1 µg/mL	30%
Cc1nc(-c2ccc(F)cc2)oc1-c1csc(Cc2cccc(Cl)c2)n1	inhibition of growth at 1 µg/mL	98%
Cc1ccc(-c2nc(-c3oc(-c4ccc(F)cc4)nc3C)cs2)cc1	inhibition of growth at 1 µg/mL	3%
Cc1nc(-c2ccccc2)oc1-c1csc(-c2ccc(Br)cc2)n1	inhibition of growth at 1 µg/mL	31%
Cc1nc(-c2ccc(F)cc2)oc1-c1csc(-c2ccc(Br)cc2)n1	inhibition of growth at 1 µg/mL	28%
CO[C@H]1/C=C/O[C@@]2(C)Oc3c(C)c(O)c4c(O)c(c(/C=N/N5CCN(C)CC5)c(O)c4c3C2=O)NC(=O)/C(C)=C\C=C\[C@H](C)[C@H](O)[C@@H](C)[C@@H](O)[C@@H](C)[C@H](OC(C)=O)[C@@H]1C [RIFAMPIN]	inhibition of growth at 1 µg/mL	94.6%
Cc1nc(-c2ccccc2)oc1-c1csc(-c2ccc(F)c(Cl)c2)n1	inhibition of growth at 1 µg/mL	16%
Cc1nc(-c2ccc(F)cc2)oc1-c1csc(-c2ccc(F)cc2)n1	inhibition of growth at 1 µg/mL	3%
Cc1nc(-c2ccccc2)oc1-c1csc(-c2ccccc2)n1	inhibition of growth at 1 µg/mL	63%
Cc1nc(-c2ccccc2)oc1-c1csc(-c2ccc(F)cc2)n1	inhibition of growth at 1 µg/mL	11%
